- EXPERIMENTAL PARAMETERS: buffer; pH 7.4; 200.0 µM
PROPERTY LABEL: solubility kinetic

State the recorded solubility kinetic for this entry: `Cc1ccc(S(=O)(=O)c2c[nH]c3ccc(Cl)cc3c2=O)cc1`
< 0.7 µg/mL

Consider the molecule shown here: `Cc1ccc(C)c(NC(=O)C2CCN(C(=O)c3cccs3)CC2)c1` What is its recorded solubility kinetic?
> 51.4 µg/mL

Which solubility kinetic is listed for `Cc1ccc(NC(=O)c2cccnc2C(=O)O)nc1` ?
> 38.6 µg/mL

For the molecule shown here, `Cc1noc(C)c1COc1ccc(C(=O)N2CCC(C(N)=O)CC2)cc1` , give the reported solubility kinetic.
> 53.6 µg/mL

# input molecule: `CC(=O)c1ccc(NC(=S)NCCCn2ccnc2)cc1` ; wanted: its solubility kinetic
> 45.4 µg/mL

Look up solubility kinetic for this molecule: `COc1cc(Cl)c(C)cc1NC(=O)CSc1nnc(CN2CCCC2)o1`
> 59.5 µg/mL

Param item = `O=C(NCCOc1ccccc1)C1CCCCC1` ; retrieve measured solubility kinetic.
> 37.1 µg/mL

I would be grateful if you could share the reported solubility kinetic for `O=C(COC(=O)Cc1ccc(Cl)cc1)NC1CCCC1` .
> 44.4 µg/mL

Would you mind telling me what solubility kinetic value was observed for `CC(=O)NCCc1cnc[nH]1` ?
> 23 µg/mL

Name the recorded solubility kinetic for COc1ccc(C(=O)COC(=O)C2CCC(=O)N2)cc1 (stereo unspecified) .
> 41.6 µg/mL

Report solubility kinetic for `Cc1nc(Cl)c(Cl)n1CCOc1ccccc1` please.
> 40.7 µg/mL

May I ask what solubility kinetic has been recorded for COc1ccccc1C(NC(C)=O)c1c(O)ccc2ccc(O)cc12 (stereo unspecified) ?
> 50.6 µg/mL

Please give the measured solubility kinetic for this molecule: `Cc1ccsc1C(=O)OCC(=O)NC1CC1`
> 35.9 µg/mL

I would be grateful if you could share the reported solubility kinetic for `CNC(=O)Nc1cc(NC(=O)NC)cc(C(F)(F)F)c1` .
> 43.5 µg/mL

Any idea what its solubility kinetic is? The molecule is `O=C(NCCCCc1ccccc1)c1ccc(Br)cc1`
< 0.7 µg/mL

Query (molecule): `CC12CN3CCN(CC(C3)/C1=N\NC(=O)Nc1cccc(Cl)c1)C2` ; field requested: solubility kinetic
> 52.2 µg/mL

What value of measured solubility kinetic is listed for `O=C(c1ccccc1F)N1CCOCC1` ?
> 31.4 µg/mL

Query (molecule): `O=C(Cn1cnc2ccccc2c1=O)N1CCc2ccccc2C1` ; field requested: solubility kinetic
> 47.9 µg/mL

Param item = `CC(C)(C)c1ccc(SCCc2cccnc2)cc1` ; retrieve measured solubility kinetic.
< 0.6 µg/mL

Fill in the blank: the reported solubility kinetic of `CCOC(=O)c1ccc(NCc2cccnc2)cc1` is ____.
> 38.4 µg/mL

Would you kindly share the measured solubility kinetic for `COc1cc(SC)ccc1C(=O)OCC(=O)N1CCCC1` ?
> 46.4 µg/mL

Endpoint output: solubility kinetic of `O=C(Nc1ccc(F)c(Cl)c1)c1cc(-c2ccco2)on1` . Value?
< 0.3 µg/mL

Any idea what solubility kinetic was measured for `O=C(NC1CCCCC1)c1cc(-c2ccc(O)cc2)on1` ?
< 0.3 µg/mL

What measured solubility kinetic goes with `COc1cc(/C=C2/SC(=O)NC2=O)ccc1OCc1ccccc1` ?
< 0.7 µg/mL

Fill in the blank: the reported solubility kinetic of `Cc1ccc(O)c(Nc2nc(-c3ccccc3)nc3ccccc23)c1` is ____.
< 0.2 µg/mL

# lookup: solubility kinetic of `CCN(C(=O)COC(=O)c1cccnc1SC)C1CCCCC1`
> 50.5 µg/mL
